Measured values drawn from the supplement of paper PMC7125110 for this set.

B1: glmS ribozyme (parent)
chain: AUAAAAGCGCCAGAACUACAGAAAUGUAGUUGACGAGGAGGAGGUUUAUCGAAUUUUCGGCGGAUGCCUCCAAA

variants of: B1; test: self-cleavage kobs at 160 uM GlcN6P; higher = faster cleavage; RNA array; settings: with glucosamine-6-phosphate
Fewer inactive variants are shown than the library holds.
REPORTED_PROPERTY: self-cleavage kobs at 160 uM GlcN6P

Record excerpt, results attached:
>  <VARIANT_ID>
G9C C34G C61G

>  <self-cleavage kobs at 160 uM GlcN6P>
< 1e-05 s⁻¹

$$$$
>  <VARIANT_ID>
G63U A64C

>  <self-cleavage kobs at 160 uM GlcN6P>
< 1e-05 s⁻¹

$$$$

Which self-cleavage kobs at 160 uM GlcN6P value is on record for C11G A15C ? < 1e-05 s⁻¹

Which self-cleavage kobs at 160 uM GlcN6P value is on record for C34U G60U ? < 1e-05 s⁻¹

Which self-cleavage kobs at 160 uM GlcN6P value is on record for G35C C67A ? < 1e-05 s⁻¹

Which self-cleavage kobs at 160 uM GlcN6P value is on record for A15U G62A ? < 1e-05 s⁻¹

Which self-cleavage kobs at 160 uM GlcN6P value is on record for C10A A48G U49G ? < 1e-05 s⁻¹
